These data points were gathered from patent US9029359B2.

- assaySystem: BTK (Homo sapiens, UniProt Q06187)
- Sequence (Q06187 whole entry): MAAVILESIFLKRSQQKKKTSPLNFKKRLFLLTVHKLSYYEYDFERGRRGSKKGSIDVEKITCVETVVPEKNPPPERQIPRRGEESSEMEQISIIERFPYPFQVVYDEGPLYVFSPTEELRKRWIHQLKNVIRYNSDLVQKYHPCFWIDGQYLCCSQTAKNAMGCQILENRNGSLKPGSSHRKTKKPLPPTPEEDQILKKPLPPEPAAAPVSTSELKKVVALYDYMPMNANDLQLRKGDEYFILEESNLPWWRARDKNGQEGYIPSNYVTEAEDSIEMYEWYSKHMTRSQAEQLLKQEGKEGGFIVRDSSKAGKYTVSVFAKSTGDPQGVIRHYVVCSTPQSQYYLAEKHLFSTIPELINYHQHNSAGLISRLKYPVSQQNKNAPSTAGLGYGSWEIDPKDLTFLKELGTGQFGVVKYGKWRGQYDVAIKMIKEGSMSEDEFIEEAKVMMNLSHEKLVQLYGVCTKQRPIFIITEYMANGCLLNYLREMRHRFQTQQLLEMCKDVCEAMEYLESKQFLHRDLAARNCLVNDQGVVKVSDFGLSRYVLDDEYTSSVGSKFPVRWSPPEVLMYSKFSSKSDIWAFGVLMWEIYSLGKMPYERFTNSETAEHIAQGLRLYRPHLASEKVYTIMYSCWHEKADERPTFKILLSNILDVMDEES
pIC50: −log10 of the molar value.
metric: pIC50

Asked: // returns reported pIC50 for input O=C(N[C@@H]1CCCN(c2ncnc3[nH]cc(F)c23)C1)[C@H](Nc1cc(F)cc(Cl)c1)C1CC1
Given back: 6.00 to 7.00

Asked: // returns reported pIC50 for input CC(C)CN(CC(C)C)S(=O)(=O)c1ccccc1NCC(=O)N[C@@H]1CCCN(c2ncnc3[nH]ncc23)C1
Given back: > 7.00

Asked: // returns reported pIC50 for input COc1ccc(C(C)(C)C)cc1NCC(=O)N[C@@H]1CCCN(c2ncnc3[nH]ccc23)C1
Given back: 5.00 to 6.00

Asked: // returns reported pIC50 for input C[C@@H](Nc1ccccc1)C(=O)N[C@@H]1CCCN(c2ncnc3[nH]ccc23)C1
Given back: 6.00 to 7.00

Asked: // returns reported pIC50 for input O=C(CNc1cc(Cl)ccc1Cl)NC1CCCN(c2ncnc3[nH]ccc23)C1 (stereo not drawn)
Given back: 6.00 to 7.00

Asked: // returns reported pIC50 for input C[C@@H](O)[C@@H](Nc1ccccc1)C(=O)N[C@@H]1CCCN(c2ncnc3[nH]ccc23)C1
Given back: 6.00 to 7.00

* * *

metric: IC50

Asked: Entry O=C(N[C@@H]1CCCN(c2ncnc3[nH]ccc23)C1)[C@H](Nc1ccccc1)c1ccccc1 , system BTK (Homo sapiens, UniProt Q06187): what IC50 was measured?
Given back: > 10000 nM

Asked: Entry Nc1ncnc(N2CCC[C@@H](NC(=O)CNc3cc(Cl)cc(Cl)c3)C2)c1CCCO , system BTK (Homo sapiens, UniProt Q06187): what IC50 was measured?
Given back: 100 to 999 nM

Asked: Entry Cc1nc(-c2cccc(NCC(=O)N[C@@H]3CCCN(c4ncnc5[nH]ccc45)C3)c2)cs1 , system BTK (Homo sapiens, UniProt Q06187): what IC50 was measured?
Given back: 100 to 999 nM

Asked: Entry COc1cccc(C)c1NCC(=O)N[C@@H]1CCCN(c2ncnc3[nH]ccc23)C1 , system BTK (Homo sapiens, UniProt Q06187): what IC50 was measured?
Given back: 1000 to 10000 nM

Asked: Entry Cc1cc(C)cc(NCC(=O)N[C@@H]2CCCN(c3ncnc4[nH]ccc34)C2)c1 , system BTK (Homo sapiens, UniProt Q06187): what IC50 was measured?
Given back: 100 to 999 nM

Asked: Entry Cc1ccc(NCC(=O)N[C@@H]2CCCN(c3ncnc4[nH]ccc34)C2)cc1C , system BTK (Homo sapiens, UniProt Q06187): what IC50 was measured?
Given back: 100 to 999 nM

Asked: Entry O=C(CNc1ccc(F)c(C(F)(F)F)c1)NC1CCCN(c2ncnc3[nH]ccc23)C1 (centres unmarked) , system BTK (Homo sapiens, UniProt Q06187): what IC50 was measured?
Given back: 1000 to 10000 nM

Asked: Entry O=C(CNc1ccccc1)N(Cc1ccccc1)C1CCCN(c2ncnc3[nH]ccc23)C1 (centres unmarked) , system BTK (Homo sapiens, UniProt Q06187): what IC50 was measured?
Given back: 1000 to 10000 nM

Asked: Entry Cc1ccc(NCC(=O)N[C@@H]2CCCN(c3ncnc4[nH]ccc34)C2)cc1Cl , system BTK (Homo sapiens, UniProt Q06187): what IC50 was measured?
Given back: 100 to 999 nM

Asked: Entry CC(C)(C)[C@@H](Nc1cc(F)cc(Cl)c1)C(=O)N[C@@H]1CCCN(c2ncnc3[nH]ncc23)C1 , system BTK (Homo sapiens, UniProt Q06187): what IC50 was measured?
Given back: < 100 nM

Asked: Entry NS(=O)(=O)c1cccc(NCC(=O)NC2CCCN(c3ncnc4[nH]ccc34)C2)c1 (centres unmarked) , system BTK (Homo sapiens, UniProt Q06187): what IC50 was measured?
Given back: > 10000 nM
